# System: SEM cells
# methodSummary: cell viability relative to DMSO control; higher = less cytotoxic
# assayConditions: RPMI 5 mM glucose + 10% FBS; 48 h; 1.71 µM
quantityMeasured: cell viability (%)

structureNotation: C[C@@H]1CN(Cc2ccc(F)cc2)[C@@H](C)CN1C(=O)c1cc2c(C(=O)C(=O)N(C)C)cn(C)c2cc1Cl
quantityMeasured: cell viability
readingUnit: %
resultNumber: 87.4
--
structureNotation: COc1cc(Nc2c(C#N)cnc3cc(OCCCN4CCN(C)CC4)c(OC)cc23)c(Cl)cc1Cl
quantityMeasured: cell viability
readingUnit: %
resultNumber: 44
--
structureNotation: CC(C)(F)C[C@H](N[C@@H](c1ccc(-c2ccc([S+](C)(=O)[O-])cc2)cc1)C(F)(F)F)C(=O)NC1(C#N)CC1
quantityMeasured: cell viability
readingUnit: %
resultNumber: 109
--
structureNotation: O=C(CCCCCCC(=O)Nc1cccnc1)NO
quantityMeasured: cell viability
readingUnit: %
resultNumber: 77.2
